Can you tell me pIC50 for the items I'm about to list?
- Target or test system: beta-catenin/TCF4 engagement (Homo sapiens, UniProt P35222)
- Construct: expressed in transfected cells; host or cells: HEK293
- Sequence (P35222 whole entry): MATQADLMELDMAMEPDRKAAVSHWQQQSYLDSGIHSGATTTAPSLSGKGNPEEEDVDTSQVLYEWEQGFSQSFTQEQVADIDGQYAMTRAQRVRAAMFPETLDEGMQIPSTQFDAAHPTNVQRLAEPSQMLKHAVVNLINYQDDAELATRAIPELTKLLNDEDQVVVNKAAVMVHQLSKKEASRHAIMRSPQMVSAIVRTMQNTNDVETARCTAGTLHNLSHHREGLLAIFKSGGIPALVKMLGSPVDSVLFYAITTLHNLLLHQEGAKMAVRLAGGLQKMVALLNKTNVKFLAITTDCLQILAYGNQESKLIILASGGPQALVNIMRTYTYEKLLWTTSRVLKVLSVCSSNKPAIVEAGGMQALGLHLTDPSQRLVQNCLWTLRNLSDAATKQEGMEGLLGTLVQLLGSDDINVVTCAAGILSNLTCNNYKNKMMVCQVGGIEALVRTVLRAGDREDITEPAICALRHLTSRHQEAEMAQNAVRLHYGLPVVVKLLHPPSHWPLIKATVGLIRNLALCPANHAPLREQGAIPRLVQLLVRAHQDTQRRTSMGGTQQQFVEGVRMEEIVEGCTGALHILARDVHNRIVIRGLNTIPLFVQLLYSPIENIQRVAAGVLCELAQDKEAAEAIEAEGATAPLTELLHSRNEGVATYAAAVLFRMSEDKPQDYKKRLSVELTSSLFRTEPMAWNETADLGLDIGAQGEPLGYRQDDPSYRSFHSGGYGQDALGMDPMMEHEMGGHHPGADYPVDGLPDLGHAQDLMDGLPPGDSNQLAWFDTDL
- Test details: Nano-BRET target engagement assay (B-cat-Halo & TCF4-Luc in HEK293 cells)
- Assay type: cell-based
- Assay context: absolute IC50; read-out: NanoBRET Abs IC50
Give bare numbers, as −log10 of the molar value.

CC(=O)N1CCC[C@]12CC=CCCCC1(CCCC=CCCCOC(=O)N3CC[C@@](C(=O)N[C@@H](Cc4ccccc4Cl)C(=O)N[C@@H](Cc4csc5ccccc45)C(=O)N[C@@H](CCC(N)=O)C(N)=O)(C3)NC(=O)[C@H]([C@@H](C)O)NC(=O)[C@H](Cc3ccccc3)NC(=O)CNC(=O)[C@H](C)NC(=O)[C@H](CN(CC(=O)O)CC(F)(F)F)NC(=O)[C@H](CC(=O)O)NC1=O)NC(=O)[C@H](CC(C)(C)C)NC(=O)[C@H](CC(=O)O)NC2=O (some centres unmarked) [I-1694] | 4.36
CC(=O)N1CCC[C@]12CC=CCCCC1(CCCC=CCCCOC(=O)N3CC[C@@](C(=O)N[C@@H](Cc4ccsc4)C(=O)N[C@@H](Cc4csc5ccccc45)C(=O)N[C@@H](Cc4c[nH]cn4)C(N)=O)(C3)NC(=O)[C@H](CC(N)=O)NC(=O)[C@H](Cc3ccccc3)NC(=O)[C@H](C)NC(=O)[C@H](C)NC(=O)[C@H](CCC(N)=O)NC(=O)[C@H](CC(=O)O)NC1=O)NC(=O)[C@H](CC(C)(C)C)NC(=O)[C@H](CC(=O)O)NC2=O (some centres unmarked) [I-839] | 4.38
CC(=O)N1CCC[C@]12CC=CCCCC1(CCCC=CCCCOC(=O)N3CC[C@@](C(=O)N[C@@H](Cc4ccccc4Cl)C(=O)N[C@@H](Cc4csc5ccccc45)C(=O)N[C@@H](CCC(N)=O)C(N)=O)(C3)NC(=O)[C@H](CC(N)=O)NC(=O)[C@H](Cc3ccccc3)NC(=O)[C@H](C)NC(=O)[C@H](C)NC(=O)[C@H](CN(CC(=O)O)C(C)C)NC(=O)[C@H](CC(=O)O)NC1=O)NC(=O)[C@H](CC(C)(C)C)NC(=O)[C@H](CC(=O)O)NC2=O (some centres unmarked) [I-1451] | 4.58

Kindly review the next compound as well.
Query: // fetch beta-catenin/TCF4 engagement (Homo sapiens, UniProt P35222) pIC50 for CC(=O)N1CCC[C@]12CC=CCCCC1(CCCC=CCCCCCC[C@@](C)(C(=O)N[C@@H](Cc3ccccc3Cl)C(=O)N[C@@H](Cc3csc4ccccc34)C(=O)N[C@@H](CCC(N)=O)C(N)=O)NC(=O)[C@H](CCO)NC(=O)[C@H](Cc3ccccc3)NC(=O)[C@H](C)NC(=O)[C@H](C)NC(=O)[C@H](CC(=O)O)NC(=O)[C@H](CC(=O)O)NC1=O)NC(=O)[C@H](CC(C)(C)C)NC(=O)[C@H](CC(=O)O)NC2=O (some centres unmarked) [I-1395]
Reply: 4.81
